# target: furin, P09958;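 also: purified furin at 1:10 enzyme:substrate in 50 mM HEPES pH 7.5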
# Sequence (P09958 whole entry): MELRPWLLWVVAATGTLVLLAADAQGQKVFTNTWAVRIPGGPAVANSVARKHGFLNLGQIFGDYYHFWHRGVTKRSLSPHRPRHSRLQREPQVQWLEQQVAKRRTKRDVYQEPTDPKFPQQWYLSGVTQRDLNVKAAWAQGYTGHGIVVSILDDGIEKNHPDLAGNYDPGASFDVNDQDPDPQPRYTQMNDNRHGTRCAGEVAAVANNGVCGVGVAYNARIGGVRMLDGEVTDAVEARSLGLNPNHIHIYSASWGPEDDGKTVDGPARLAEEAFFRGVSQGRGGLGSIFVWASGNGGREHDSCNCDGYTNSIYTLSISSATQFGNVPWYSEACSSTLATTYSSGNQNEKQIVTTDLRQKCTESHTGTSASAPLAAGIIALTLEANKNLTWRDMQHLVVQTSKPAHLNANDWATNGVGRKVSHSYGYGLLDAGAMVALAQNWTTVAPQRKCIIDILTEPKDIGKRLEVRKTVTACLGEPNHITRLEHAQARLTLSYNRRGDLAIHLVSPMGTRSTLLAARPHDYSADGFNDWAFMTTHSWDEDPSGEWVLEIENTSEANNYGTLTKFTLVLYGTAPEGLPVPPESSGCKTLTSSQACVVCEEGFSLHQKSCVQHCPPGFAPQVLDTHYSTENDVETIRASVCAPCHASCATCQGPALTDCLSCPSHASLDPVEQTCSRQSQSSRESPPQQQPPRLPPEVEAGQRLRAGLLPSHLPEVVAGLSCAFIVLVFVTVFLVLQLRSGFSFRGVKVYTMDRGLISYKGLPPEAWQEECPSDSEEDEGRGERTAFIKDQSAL
# experiment: furin cleavage Z-score vs untreated control; higher = more cleavage, active = 3.5 or more, inactive = 1 or less, 8 variable residues between constant flanks
# experimental_setup: 7.5 min
Some of the results follow. The true hit rate is not given.
Outcome field: choose from active, inactive

A selection of reference data follows.
Dear colleague, could you share the recorded outcome for CARVARHAAPAGNASASA [FS-2193] when you have a moment? active

Dear colleague, could you share the recorded outcome for CAGRERMAREAGNASASA [FS-332] when you have a moment? active

Dear colleague, could you share the recorded outcome for CADFERKAREAGNASASA [FS-222] when you have a moment? inactive

Dear colleague, could you share the recorded outcome for CAKIPRFRRIAGNASASA [FS-449] when you have a moment? inactive

Dear colleague, could you share the recorded outcome for CARSYRIVRTAGNASASA [FS-1934] when you have a moment? active

Dear colleague, could you share the recorded outcome for CAKLFRVKRSAGNASASA [FS-1220] when you have a moment? active

Dear colleague, could you share the recorded outcome for CAGAVQWMNRAGNASASA [HC1116] when you have a moment? inactive

Dear colleague, could you share the recorded outcome for CAGRGRERRWAGNASASA [FS-333] when you have a moment? active

Dear colleague, could you share the recorded outcome for CALRWRQRRAAGNASASA [FS-272] when you have a moment? active

Dear colleague, could you share the recorded outcome for CAASSRWRRHAGNASASA [FS-117] when you have a moment? active

Next:
Dear colleague, could you share the recorded outcome for CALARRQRRHAGNASASA [FS-266] when you have a moment? active

Dear colleague, could you share the recorded outcome for CALKATCTANAGNASASA [HC1266] when you have a moment? inactive

Dear colleague, could you share the recorded outcome for CAGREILLGPAGNASASA [HC664] when you have a moment? inactive

Dear colleague, could you share the recorded outcome for CAPQARVAIKAGNASASA [HC1494] when you have a moment? inactive

Dear colleague, could you share the recorded outcome for CALRPRFRREAGNASASA [FS-614] when you have a moment? active
